Listed here are sequences together with their documented folding stability dG unfold.
procedure-details: folding stability dG unfold (combined trypsin and chymotrypsin); higher = more stable
Report only the number, with the unit kcal/mol understood.

Consider the reported folding stability dG unfold for these sequences:
residues	folding stability dG unfold [kcal/mol]
SAGGSAGGSAKKKKKKKKYKPKPVKIFKIKLKLKLEKTKDGLKLKIEEIEIEEIATLEKGLSAGGSAGGSAG [r3_397_TrROS_Hall]	2.43
SAFRIKIELWNPNGKPQEHTFPVPPGDPDKLVEEIEDEVQKHHPNDGYKMRAEILEVTPNGWVTIRIWYSAG [r14_622_TrROS]	2.79
DWLIRIKFTYKGPDGNKHEMKIIVRVPESPEQAKEEVEDIARMIMEEQGYPPENIKKIKVEVIPPGEELTPS [r1_159_TrROS]	3.91
SMKPGELVLVTETETRTFTVTPEDLPPGWKVKEVKVTVTRVALFRVTPDGRVELVEEVTSVEIEVTLEPESA [r9_747_TrROS_Hall]	4.52
SAGGILDLAAERNAVSVEVLEVNPEPPTVTVRLTYRNAAGEPRTATFTVELPPPAPPVPLVLPGEATFSAGG [r13_608_TrMRF]	1.85
SAGMVVENPGTETRVVFDPETGELYVEVGDKVYRIPLPPGVEVEFEVDPEAGTIRVYFPNTGEVLELPLSAG [r5_858_TrMRF]	3.63
SAGGSAGGSGKPEKVKITYTKDTNTNKYTATITFENGPTYKITFPTKTPEEAIEQAKKLIEASSAGGSAGGS [r12_339_TrMRF]	1.94
SAGGSAGGSAGSVTVTLSSDPDKTFTVTLPGGETVTFQPTPTNQVTVTVTSPTTPVTVTVSSAGGSAGGSAG [r3_334_JUSTAS]	1.43
SAGGSAGGSAGGAMTVETVELPSGEVVTLEYDPASGRVLTTVETPDSVERTEDPLEPPAASAGGSAGGSAGG [r7_63_JUSTAS]	-0.0846
SAGGSAGGIIVWFPFDDIDELIKNGNIDEVEISRDPNDWFRFTPEIRPPPPPPPEQLAKNNKKNSAGGSAGG [r6_279_TrROS]	0.735

Now consider a different sequence.
Qu. Give the measured folding stability dG unfold of SAGGSAGGKKIKIEIIYDKENNKLYIYVVDENTKKVYRYEFNKNGKLIKVEPVKEVKPGEVIPLSAGGSAGG [r6_148_TrROS_Hall] .
Ans. 2.32
